Every entry's value here was drawn from patent US20250236608A1.

- experimental_system: EGFR (d746-750) (Homo sapiens (Human), UniProt P00533, DEL746-750)
- Sequence (P00533 other isoform, or with tags, fused parts or gaps del 1-694/del 746-750 limits assumed): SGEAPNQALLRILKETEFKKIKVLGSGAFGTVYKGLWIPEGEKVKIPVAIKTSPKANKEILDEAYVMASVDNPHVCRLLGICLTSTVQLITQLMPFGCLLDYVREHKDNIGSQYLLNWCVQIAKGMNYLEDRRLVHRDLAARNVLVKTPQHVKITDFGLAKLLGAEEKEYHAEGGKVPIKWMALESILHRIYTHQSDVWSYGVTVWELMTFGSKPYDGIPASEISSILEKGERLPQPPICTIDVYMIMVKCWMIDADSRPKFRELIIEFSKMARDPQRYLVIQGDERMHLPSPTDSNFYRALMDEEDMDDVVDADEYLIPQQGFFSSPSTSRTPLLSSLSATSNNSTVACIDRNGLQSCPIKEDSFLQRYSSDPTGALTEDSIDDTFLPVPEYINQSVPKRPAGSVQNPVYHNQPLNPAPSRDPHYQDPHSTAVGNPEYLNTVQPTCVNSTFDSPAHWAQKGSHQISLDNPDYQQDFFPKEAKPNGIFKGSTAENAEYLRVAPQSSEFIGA
- method: Biochemical EGFR inhibition assay, EGFR (d746-750)
- assay_context: Caliper mobility shift; 1.0 mM ATP or ATP Km; read-out: Enz EGFR_Exon19-del746-750 IC50
measure: IC50 (nM)

Consider the worked cases shown below.
compound="COc1cc2ncnc(-c3cn(C)nc3-c3ccccc3)c2cc1OC(=O)N1C(C)CN(C)C[C@H]1C (stereo in doubt) [Example 90]" experimental_system="EGFR (d746-750) (Homo sapiens (Human), UniProt P00533, DEL746-750)" measure=IC50 experimental_result=8.5
compound="COc1cc2ncnc(-c3cn(C)nc3-c3ccccc3)c2cc1NC(=O)C[C@@H]1CCCO1 [Example 281]" experimental_system="EGFR (d746-750) (Homo sapiens (Human), UniProt P00533, DEL746-750)" measure=IC50 experimental_result=1.4
compound="COc1cc2ncnc(-c3cn(C)nc3-c3ccccc3)c2nc1NC(=O)[C@@]12C[C@@H]1CN(C)C2 (single isomer, unassigned) [Example 392]" experimental_system="EGFR (d746-750) (Homo sapiens (Human), UniProt P00533, DEL746-750)" measure=IC50 experimental_result=2.2

I: COc1cc2ncnc(-c3cn(C)nc3-c3ccccc3)c2cc1NC(=O)[C@@H]1CCN(C)C1 [Example 210]
II: COc1cc2ncnc(-c3cn(C)nc3-c3ccccc3)c2nc1-c1ccc2c(c1)CNC2=O [Example 152]
Just tell me: smaller IC50 value, I or II ? Return value: the label identifying the chosen record.
I
(I: 0.6 nM, II: 1 nM)
